- method summary: Cmax in BCRP-/- mouse at 50 mg/kg, po
- Format: ADME, organism-based
- Parameters: dose 50 mg/kg, route oral
- condition details: in vivo
measurement label: Cmax (nM)
Quick reminder: number only, in nM, skip the unit.

In: Would you kindly share the measured Cmax for O=c1c(-c2ccc(O)cc2)coc2cc(O)cc(O)c12 [GENISTEIN] ?
Out: 200

###

- method summary: Cmax in wild-type FVB mouse at 20 mg/kg, po
- Format: ADME, organism-based
- Parameters: dose 20 mg/kg, route oral
- condition details: in vivo
measurement label: Cmax (nM)
Quick reminder: number only, in nM, skip the unit.

In: Would you kindly share the measured Cmax for O=c1c(-c2ccc(O)cc2)coc2cc(O)cc(O)c12 [GENISTEIN] ?
Out: 650

###

- method summary: Cmax in wild-type FVB mouse at 2 mg/kg, po
- Assay type: ADME, organism-based
- Parameters: dose 2 mg/kg, route oral
- condition details: in vivo
measurement label: Cmax (nM)
Quick reminder: number only, in nM, skip the unit.

In: Would you kindly share the measured Cmax for O=c1c(-c2ccc(O)cc2)coc2cc(O)cc(O)c12 [GENISTEIN] ?
Out: 100

###

- method summary: Drug metabolism in BCRP-/- mouse hepatic S9 fraction assessed as compound sulfation rate at 10 uM by UPLC-MS/MS analysis
- Type: ADME, Liver
- condition details: s9, 10 µM
measurement label: Drug metabolism (pmol/min/mg)
Quick reminder: number only, in pmol/min/mg, skip the unit.

In: Would you kindly share the measured Drug metabolism for "O=c1c(-c2ccc(O)cc2)coc2cc(O)cc(O)c12" ?
Out: 7.9

###

- method summary: AUC ( 0 to t) in wild-type FVB mouse at 20 mg/kg, po
- Format: ADME, organism-based
- Set-up: dose 20 mg/kg, route oral
- condition details: plasma
measurement label: AUC(0-t)

In: Would you kindly share the measured AUC(0-t) for "O=c1c(-c2ccc(O)cc2)coc2cc(O)cc(O)c12" ?
Out: 6.05 µM·h

###

- method summary: AUC ( 0 to t) in BCRP-/- mouse at 2 mg/kg, po
- Assay type: ADME, organism-based
- Design: dose 2 mg/kg, route oral
- condition details: plasma
measurement label: AUC(0-t)

In: Would you kindly share the measured AUC(0-t) for "O=c1c(-c2ccc(O)cc2)coc2cc(O)cc(O)c12" ?
Out: 710 nM·h

###

- method summary: Cmax in BCRP-/- mouse at 2 mg/kg, po
- Format: ADME, organism-based
- Set-up: dose 2 mg/kg, route oral
- condition details: in vivo
measurement label: Cmax (nM)
Quick reminder: number only, in nM, skip the unit.

In: Would you kindly share the measured Cmax for "O=c1c(-c2ccc(O)cc2)coc2cc(O)cc(O)c12" ?
Out: 230

###

- System: Blood
- method summary: Stability in Wistar rat blood at 3 uM up to 4 hrs by UPLC-MS/MS analysis
- Assay type: ADME, tissue-based
measurement label: Stability

> print(dat)
                      smiles.representation  result
1  O=c1c(-c2ccc(OS(=O)(=O)O)cc2)coc2cc(O)cc(O)c12  Stable
2  O=c1c(-c2ccc(O)cc2)coc2cc(OS(=O)(=O)O)cc(O)c12  Stable
3  O=C(O)[C@H]1O[C@@H](Oc2cc(O)c3c(=O)c(-c4ccc(O)cc4)coc3c2)[C@H](O)[C@@H](O)[C@@H]1O  Stable
4  O=C(O)[C@H]1O[C@@H](Oc2ccc(-c3coc4cc(O)cc(O)c4c3=O)cc2)[C@H](O)[C@@H](O)[C@@H]1O  Stable
